In this section we review reported Time (mins) cpm, 0 values for a set of molecules.
- experimental_system: UniProt:P29477
- protocol: iNOS SPA enzyme assay, effect of solvents
- Format: biochemical, murine
- Design: purchased Cayman Chemical Company 60864
- experimental_setup: 5% solvent; 0 min
Report the value in cpm with no unit label.

Below are worked cases with known answers.
CC(C)=O | 12431
CCO | 13248
CO | 15317

Attention now turns to another entry.
(Q) Suppose we examine the molecule C[S+](C)[O-] ; what Time (mins) cpm, 0 value has been reported?
(A) 8530

###

- experimental_system: iNOS (Mus musculus)
- protocol: iNOS SPA enzyme assay, effect of solvents
- Format: biochemical, murine
- Parameters: purchased Cayman Chemical Company 60864
- experimental_setup: 1% solvent
assay_endpoint: Ratio Time 0/20 mins
The response must contain the number and no unit.

Below are worked cases with known answers.
CO | 7.56
CCO | 6.57
CC(C)=O | 6.54

Attention now turns to another entry.
(Q) Suppose we examine the compound C[S+](C)[O-] ; what Ratio Time 0/20 mins value has been reported?
(A) 6.39
